Measurement target: T1, human IFNAR-1 protein (form not stated) (human, UniProt P17181 28-436, limits assumed)
T1 construct: bispecific ELISA
T1 sequence (looked up): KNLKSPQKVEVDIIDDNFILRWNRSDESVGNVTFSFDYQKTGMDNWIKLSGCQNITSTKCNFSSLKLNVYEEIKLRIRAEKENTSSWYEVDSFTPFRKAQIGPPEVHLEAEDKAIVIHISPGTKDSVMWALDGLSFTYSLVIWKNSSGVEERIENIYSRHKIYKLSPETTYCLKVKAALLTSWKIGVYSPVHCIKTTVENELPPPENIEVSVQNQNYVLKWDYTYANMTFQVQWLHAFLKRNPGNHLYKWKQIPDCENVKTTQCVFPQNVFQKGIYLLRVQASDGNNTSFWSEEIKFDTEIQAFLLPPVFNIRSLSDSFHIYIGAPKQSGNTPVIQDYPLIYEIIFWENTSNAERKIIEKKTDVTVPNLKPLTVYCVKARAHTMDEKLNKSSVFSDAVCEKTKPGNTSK
Assay remarks: affinity ranking of expressed humanized 485G10 IgGs (method not named)
pKd: −log10 of the molar value.
Rule: pKd under 9 gives N, otherwise Y.

QUERY: Check if pKd >= 9 (inclusive). Item: 485G10 humanized VH0 + VL1 (antibody, V domains shown, Humanized IgG expressed in HEK293; also called VH0 + VL1 (485G10)) VH: QVQLVQSGAEVKKPGASVKVSCKASGFNIKDYYIHWVRQAPGQGLEWMGRIDPEDAETKYAPKFQGRVTMTRDTSISTAYMELSRLRSDDTVVYYCARYHGYWALDYWGQGTLVTVSS VL: DIQMTQSPSSLSASVGDRVTITCKTSQNVGTNVAWFQQKPGKAPKSLIYSTSYRYSGVPSRFSGSGSGTDFTLTISSLQPEDFATYYCHQYFSYPYTFGPGTKVDIK
RESULT: N

QUERY: Does the reported pKd for 485G10 humanized VH3 + VL1 (antibody, V domains shown, Humanized IgG expressed in HEK293; also called VH3 + VL1 (485G10)) VH: QVQLVQSGAEVKKPGASVKLSCKGSGFNIKDYYIHWVKQAPGQGLEWIGRIDPEDAETKYAPKFQGRATITADTSISTAYLELSRLRSDDTVVYYCGRYHGYWALDYWGQGTLVTVSS VL: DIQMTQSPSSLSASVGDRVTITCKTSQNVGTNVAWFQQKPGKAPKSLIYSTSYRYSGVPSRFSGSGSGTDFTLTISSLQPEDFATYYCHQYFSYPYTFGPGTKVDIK fall at or above the 9 mark?
RESULT: N

QUERY: Reported pKd at or above 9? 485G10-H1L3 (antibody, V domains shown, Humanized IgG expressed in HEK293; also called VH1 + VL3 (485G10)) VH: QVQLVQSGAEVKKPGASVKVSCKASGFNIKDYYIHWVRQAPGQGLEWMGRIDPEDAETKYAPKFQGRVTMTADTSISTAYMELSRLRSDDTVVYYCARYHGYWALDYWGQGTLVTVSS VL: DIQMTQSPSSLSTSVGDRVTITCKTSQNVGTNVAWYQQKPGKAPKPLIYSTSYRYSGVPSRFSGSGSGTDFTLTISSVQPEDFATYYCHQYFSYPYTFGPGTKLDIK
RESULT: Y
